# assayedSystem: DNA topoisomerase 1 (Homo sapiens)
# Sequence (P11387 whole entry): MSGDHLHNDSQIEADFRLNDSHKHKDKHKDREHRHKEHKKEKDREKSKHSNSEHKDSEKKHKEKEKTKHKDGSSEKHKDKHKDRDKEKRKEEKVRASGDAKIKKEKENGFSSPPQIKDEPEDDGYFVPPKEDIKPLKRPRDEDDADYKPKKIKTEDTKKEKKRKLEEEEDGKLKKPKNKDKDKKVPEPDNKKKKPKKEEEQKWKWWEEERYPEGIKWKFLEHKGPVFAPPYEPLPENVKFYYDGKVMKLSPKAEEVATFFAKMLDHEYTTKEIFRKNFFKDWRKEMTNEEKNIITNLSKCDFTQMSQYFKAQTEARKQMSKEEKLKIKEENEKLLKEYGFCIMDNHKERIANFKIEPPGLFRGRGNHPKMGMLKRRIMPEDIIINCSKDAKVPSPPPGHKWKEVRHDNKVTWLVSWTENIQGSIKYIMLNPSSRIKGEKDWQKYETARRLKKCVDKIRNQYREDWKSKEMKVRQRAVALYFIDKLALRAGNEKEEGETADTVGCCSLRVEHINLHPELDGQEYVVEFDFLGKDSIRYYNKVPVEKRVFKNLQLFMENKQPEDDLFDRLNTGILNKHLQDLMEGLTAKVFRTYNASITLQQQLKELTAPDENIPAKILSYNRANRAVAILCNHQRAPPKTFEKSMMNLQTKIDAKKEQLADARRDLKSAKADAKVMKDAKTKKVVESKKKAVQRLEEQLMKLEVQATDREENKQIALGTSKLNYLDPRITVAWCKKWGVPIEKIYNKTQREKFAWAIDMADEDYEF
# assayText: Inhibition of human DNA topoisomerase 1 at free enzyme state
Please respond with reported pIC50 for every item in the list.
In simple prose, pIC50 is minus the logarithm base ten of a concentration in moles per litre.

Challenge: Name the reported pIC50 value associated with the compound C/C=C(/C)C(=O)O[C@H]1[C@H](O)[C@]2(COC(C)=O)[C@H](O)C[C@]3(C)C(=CC[C@@H]4[C@@]5(C)CC[C@H](O[C@@H]6O[C@H](C(=O)O)[C@@H](O)[C@H](O[C@@H]7O[C@@H](CO)[C@H](O)[C@H]7O)[C@H]6O[C@@H]6O[C@H](CO)[C@@H](O)[C@H](O)[C@H]6O)[C@](C)(CO)[C@@H]5CC[C@]43C)[C@@H]2CC1(C)C [AESCULIOSIDE IIIA]
Response given: 4.62

Challenge: Name the reported pIC50 value associated with the compound C/C=C(/C)C(=O)O[C@H]1[C@H](OC(=O)C(C)CC)[C@]2(CO)[C@H](O)C[C@]3(C)C(=CC[C@@H]4[C@@]5(C)CC[C@H](O[C@@H]6O[C@H](C(=O)O)[C@@H](O)[C@H](O[C@@H]7O[C@@H](CO)[C@H](O)[C@H]7O)[C@H]6O[C@@H]6O[C@H](CO)[C@H](O)[C@H](O)[C@H]6O)C(C)(C)[C@@H]5CC[C@]43C)[C@@H]2CC1(C)C (stereo partly drawn) [AESCULIOSIDE IVC]
Response given: 4.62

Challenge: Name the reported pIC50 value associated with the compound C/C=C(/C)C(=O)O[C@H]1[C@H](OC(=O)C(C)CC)[C@]2(CO)[C@H](O)[C@H](O)[C@]3(C)C(=CC[C@@H]4[C@@]5(C)CC[C@H](O[C@@H]6O[C@H](C(=O)O)[C@@H](O)[C@H](O[C@@H]7O[C@@H](CO)[C@H](O)[C@H]7O)[C@H]6O[C@@H]6O[C@H](CO)[C@H](O)[C@H](O)[C@H]6O)C(C)(C)[C@@H]5CC[C@]43C)[C@@H]2CC1(C)C (stereo partly drawn) [AESCULIOSIDE IVA]
Response given: 4.62

* * *

# Tested on: MRC5
# assayText: Cytotoxicity against human MRC5 cells at 25 uM after 48 hrs by WST8 assay
# Assay type: cell-based
# runConditions: mrc5, 48 h

compound	growth inhibition (GI)
C/C=C(/C)C(=O)O[C@H]1[C@H](O)C(C)(C)C[C@H]2C3=CC[C@@H]4[C@@]5(C)CC[C@H](O[C@@H]6O[C@H](C(=O)O)[C@@H](O)[C@H](O[C@@H]7OC[C@@H](O)[C@H](O)[C@H]7O)[C@H]6O[C@@H]6O[C@H](CO)[C@@H](O)[C@H](O)[C@H]6O)C(C)(C)[C@@H]5CC[C@@]4(C)[C@]3(C)C[C@@H](O)[C@]21CO [ERYNGIOSIDE F]	Not Active
CC1(C)C[C@H]2C3=CC[C@@H]4[C@@]5(C)CC[C@H](O)C(C)(C)[C@@H]5CC[C@@]4(C)[C@]3(C)C[C@@H](O)[C@@]2(CO)[C@@H](O)[C@@H]1O	Not Active
CC1(C)C[C@H]2C3=CC[C@@H]4[C@@]5(C)CC[C@H](O[C@@H]6O[C@H](C(=O)O)[C@@H](O)[C@H](O[C@@H]7O[C@@H](CO)[C@H](O)[C@H]7O)[C@H]6O[C@@H]6O[C@H](CO)[C@@H](O)[C@H](O)[C@H]6O)[C@](C)(CO)[C@@H]5CC[C@@]4(C)[C@]3(C)C[C@@H](O)[C@@]2(CO)[C@@H](O)[C@@H]1O [AESCULIOSIDE ID]	Not Active
